Target: T1, human B7-H4 (purified monomeric recombinant human protein, ACRO biosystems) (human, UniProt Q7Z7D3 29-258, limits assumed, chemically biotinylated (EZ-Link NHS-LC-Biotin) in the yeast display and competition experiments; non-biotinylated in SPR)
T1 construct: Bought recombinant monomeric protein; also called B7x; B7S1
T1 sequence: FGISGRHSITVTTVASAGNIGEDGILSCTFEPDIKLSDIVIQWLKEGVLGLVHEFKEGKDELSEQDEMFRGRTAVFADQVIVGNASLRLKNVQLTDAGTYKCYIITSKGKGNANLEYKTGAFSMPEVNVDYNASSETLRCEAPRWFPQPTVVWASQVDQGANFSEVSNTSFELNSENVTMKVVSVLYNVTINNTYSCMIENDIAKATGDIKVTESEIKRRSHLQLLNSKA
Assay: SPR (Carterra LSA); scFv-Fc captured on anti-human IgG Fc, antigen injected
Experimental: Finally, the affinity of the 24 clones was determined using high-throughput surface plasmon resonance (SPR). The supernatants were arrayed by non-covalent capture in a medium-density SPR chip previously coupled with an anti-human polyclonal antibody and (at least 4 replicates per clone). Non-biotinylated antigen was used for all affinity measurements and sensorgrams were fitted using a pseudo-first-order kinetic model (Lundström 1994). […]
Experimental Readout: kon (M⁻¹ s⁻¹)
Field: numeric (M⁻¹ s⁻¹). Do not append units.

Can you look up the measured kon of B07 scFv-Fc (scFv, V domains shown, Tested as scFv-Fc fusion (human IgG1 Fc, vector pDNL9) in crude yeast supernatant; Combo 2 library) VH: EVQLVESGGGVVQPGRSLRLSCAASGFTFGDRAMNWVRQAPGKGLEWVSAISGSGATTYYADSVKGRFTISRDNSKNTLYLQMNSLRAEDTAVYYCARKRWYGMDVWGQGTTVTVSS VL: SYELTQPPSVSVAPGKTARITCGGNNIGSKSVHWYQQKPGQAPVLVVYDDSDRPSGIPERFSGSNSGNTATLTISRVEAGDEADYYCQVWDRGMIFGTGTKLTVL for me? 330000

Can you look up the measured kon of A08 scFv-Fc (scFv, V domains shown, Tested as scFv-Fc fusion (human IgG1 Fc, vector pDNL9) in crude yeast supernatant; Combo 2 library) VH: EVQLVESGGGVVQPGRSLRLSCAASGFTFGDRAMNWVRQAPGKGLEWVSAISSSGTTSYYADSVKGRFTISRDNSKNTLYLQMNSLRAEDTAVYYCARKRWYGMDVWGQGTTVTVSS VL: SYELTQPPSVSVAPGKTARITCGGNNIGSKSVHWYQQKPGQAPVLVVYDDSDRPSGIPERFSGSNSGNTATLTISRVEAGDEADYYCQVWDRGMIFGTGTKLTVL for me? 310000

Can you look up the measured kon of Parental (H6.1) scFv-Fc (scFv, V domains shown, Expressed with the 24 clones as scFv-Fc fusion (human IgG1 Fc) in yeast for SPR; also called parental antibody; parental molecule) VH: EVQLVESGGGVVQPGRSLRLSCAASGFTFSSYSMNWVRQAPGKGLEWVSAISGSGGSTYYADSVKGRFTISRDNSKNTLYLQMNSLRAEDTAVYYCARKRWYGMDVWGQGTTVTVSS VL: SYELTQPPSVSVAPGKTARITCGGNNIGSKSVHWYQQKPGQAPVLVVYDDSDRPSGIPERFSGSNSGNTATLTISRVEAGDEADYYCQVWDSRTYVFGTGTKLTVL for me? 450000

Can you look up the measured kon of B08 scFv-Fc (scFv, V domains shown, Tested as scFv-Fc fusion (human IgG1 Fc, vector pDNL9) in crude yeast supernatant; Combo 2 library) VH: EVQLVESGGGVVQPGRSLRLSCAASGFTFSDRAMNWVRQAPGKGLEWVSAISASGASRYYADSVKGRFTISRDNSKNTLYLQMNSLRAEDTAVYYCARKRWYGMDVWGQGTTVTVSS VL: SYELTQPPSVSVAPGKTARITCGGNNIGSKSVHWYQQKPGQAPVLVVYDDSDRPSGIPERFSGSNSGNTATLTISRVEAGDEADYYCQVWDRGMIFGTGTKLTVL for me? 150000

Can you look up the measured kon of A01 scFv-Fc (scFv, V domains shown, Tested as scFv-Fc fusion (human IgG1 Fc, vector pDNL9) in crude yeast supernatant; Combo 1 library) VH: EVQLVESGGGVVQPGRSLRLSCAASGFTFSNKAMNWVRQAPGKGLEWVSAISGSGATTYYADSVKGRFTISRDNSKNTLYLQMNSLRAEDTAVYYCARKRWYGMDVWGQGTTVTVSS VL: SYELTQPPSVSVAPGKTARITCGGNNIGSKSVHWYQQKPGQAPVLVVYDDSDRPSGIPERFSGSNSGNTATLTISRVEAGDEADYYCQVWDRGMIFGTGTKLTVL for me? 170000
